Study target: T1, PLCγ1 tSH2 R694L (aa 545-790) (UniProt P19174 545-790, R694L)
T1 construct: source: E. coli BL21(DE3), purified (HisTrap, 3C cleavage, SEC)
T1 sequence (looked up): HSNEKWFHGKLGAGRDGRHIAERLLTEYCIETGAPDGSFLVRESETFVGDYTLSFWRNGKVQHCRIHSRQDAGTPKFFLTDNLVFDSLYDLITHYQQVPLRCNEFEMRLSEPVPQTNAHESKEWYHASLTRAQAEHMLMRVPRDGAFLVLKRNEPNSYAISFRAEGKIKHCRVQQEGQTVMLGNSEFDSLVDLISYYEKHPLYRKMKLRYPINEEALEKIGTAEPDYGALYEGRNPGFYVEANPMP
Assay details: microfluidic diffusional sizing (Fluidity One-W); 200 nM 5,6-FAM peptide held constant, PLCγ1 domains varied from 0 nM to 8000 nM, room temperature, 100 mM MES, 150 mM NaCl, 3 mM TCEP, pH 6.5; hydrodynamic radius fitted; triplicate
Condition label: both partners purified
pKd: −log10 of the molar value. Non-standard residues stand in square brackets, D forms with d. No end group written: not given here. pY = N[C@@H](Cc1ccc(OP(=O)(O)O)cc1)C(=O)O
Measurement name: pKd

{5,6‑FAM}-DDL[pY]EEVLFPRN (last 12 residues of KSHV pK15 cytoplasmic tail; also called 5,6-FAM-labelled pK15 (12mer); phosphorylated pK15 peptide; source: synthetic peptide, bought: Caslo ApS) [5,6-FAM-labelled phosphorylated pK15 12mer peptide]; 5.20
